Reference for the values: patent US11795460B2

# System: TTR
# test-details: TTR editing in primary human hepatocytes transfected with Spy Cas9 protein (RNP) loaded with dgRNAs (Table 8)
# Format: cell-based
# experimental-parameters: dgRNA transfected with Spy Cas9 protein (RNP)
API: label(entry) gives rule met if the entry's Avg % Deletion is strictly smaller than 0.5%; on equality or larger values it gives rule not met.

Use these answered entries as a reference point.
{"columns": ["sequence", "assigned-label"],
 "data": [
  ["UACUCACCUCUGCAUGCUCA (tested as dual guide RNA, chemistry not given here) [CR003372]", "rule not met"],
  ["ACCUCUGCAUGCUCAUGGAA (tested as dual guide RNA, chemistry not given here) [CR003371]", "rule not met"]
]}

Enquiry: Consider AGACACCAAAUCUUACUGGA (tested as dual guide RNA, chemistry not given here) [CR003367] . Does its Avg % Deletion lie strictly below 0.5%?
Return: rule not met

Enquiry: Threshold test, Avg % Deletion < 0.5%: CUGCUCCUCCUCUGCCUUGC (tested as dual guide RNA, chemistry not given here) [CR003335]
Return: rule not met
